These measurements were taken from patent US20250179047A1.

Biological target: BCL2 F104I (Homo sapiens, UniProt P10415, F104I)
Assay: TR-FRET competitive binding assay, BCL2 F104I
Conditions: Ki determined from IC50, read-out: TR_FRET EKI_Bcl2 F104I
Method: The relative binding potency of each compound was determined in a competitive binding assay using time resolved-fluorescence resonance energy transfer (TR-FRET). […] The degree of binding or corresponding compound inhibition can be quantified by the TR-FRET signal between the terbium donor and fluorescein acceptor. […] TR-FRET measurements were performed on a Biotek Synergy Neo plate reader. […] The TR-FRET signal was calculated as the emission-ratio at 520 nm over 495 nm. […]
Measured pKi of individual entries
Remember the convention: pKi equals -log10 of concentration in molar.

MOLECULE: Cc1c(N(C(=O)c2cc(-c3cc4c(cc3C(=O)N3Cc5ccccc5C[C@H]3CN3CCCCC3)CN(C(=O)Cc3ccc(OCCN5CCOC(C)(C)C5)cc3)CC4)n(C)c2C)c2ccc(O)cc2)cc(C#N)n1C [Example 121]
TARGET_OR_TEST_SYSTEM: BCL2 F104I (Homo sapiens, UniProt P10415, F104I)
OBSERVED_VALUE: 9.25
--
MOLECULE: Cc1c(N(C(=O)c2cc(-c3cc4c(cc3C(=O)N3Cc5ccccc5C[C@H]3C)CN(C(=O)Cc3ccc(N5CCN6CCOC[C@@H]6C5)cc3F)CC4)n(C)c2C)c2ccc(O)cc2)cc(C#N)n1C [Example 45]
TARGET_OR_TEST_SYSTEM: BCL2 F104I (Homo sapiens, UniProt P10415, F104I)
OBSERVED_VALUE: 8.78
--
MOLECULE: Cc1c(N(C(=O)c2cc(-c3cc4c(cc3C(=O)N3Cc5ccccc5C[C@H]3CN3CCCCC3)CN(C(=O)Cc3ccc(OCC(C)N5CCOCC5)cc3)CC4)n(C)c2C)c2ccc(O)cc2)cc(C#N)n1C (single isomer, unassigned) [Example 127]
TARGET_OR_TEST_SYSTEM: BCL2 F104I (Homo sapiens, UniProt P10415, F104I)
OBSERVED_VALUE: 9.59
--
MOLECULE: Cc1c(N(C(=O)c2cc(-c3cc4c(cc3C(=O)N3Cc5ccccc5C[C@H]3C)CN(C(=O)Cc3ccc(OCCN5CCN6CCOC[C@@H]6C5)cc3)CC4)n(C)c2C)c2ccc(O)cc2)cc(C#N)n1C [Example 36]
TARGET_OR_TEST_SYSTEM: BCL2 F104I (Homo sapiens, UniProt P10415, F104I)
OBSERVED_VALUE: 9.80
--
MOLECULE: Cc1c(N(C(=O)c2cc(-c3cc4c(cc3C(=O)N3Cc5ccccc5C[C@H]3C)CN(C(=O)Cc3ccc(OCCN5CCO[C@@H](C)C5)cc3)CC4)n(C)c2C)c2ccc(O)cc2)cc(C#N)n1C [Example 57]
TARGET_OR_TEST_SYSTEM: BCL2 F104I (Homo sapiens, UniProt P10415, F104I)
OBSERVED_VALUE: 9.33
--
MOLECULE: Cc1cccc(CC(=O)N2CCc3cc(-c4cc(C(=O)N(c5ccc(O)cc5)c5cc(C#N)n(C)c5C)c(C)n4C)c(C(=O)N4Cc5ccccc5C[C@H]4C)cc3C2)c1 [Example 1]
TARGET_OR_TEST_SYSTEM: BCL2 F104I (Homo sapiens, UniProt P10415, F104I)
OBSERVED_VALUE: 8.21

stdin: In one line, give reported pKi of the entry Cc1c(N(C(=O)c2cc(-c3cc4c(cc3C(=O)N3Cc5ccccc5C[C@H]3C)CN(C(=O)Cc3ccc(OCCN5CCOCC5)cc3)CC4)n(C)c2C)c2ccc(O)cc2)cc(C#N)n1C [Example 21] .
stdout: 9.54

stdin: Tell me measured pKi for Cc1c(N(C(=O)c2cc(-c3cc4c(cc3C(=O)N3Cc5ccccc5C[C@H]3C)CN(C(=O)Cc3ccc(OCCN5C[C@H](C)O[C@@H](C)C5)cc3)CC4)n(C)c2C)c2ccc(O)cc2)cc(C#N)n1C (single isomer, unassigned) [Example 42] please.
stdout: 9.12

stdin: Return pKi (reported value) for this molecule: Cc1c(N(C(=O)c2cc(-c3cc4c(cc3C(=O)N3Cc5ccccc5C[C@H]3CN3CCCCC3)CN(C(=O)Cc3c(F)cc(OCCN5CCOCC5)cc3F)CC4)n(C)c2C)c2ccc(O)cc2)cc(C#N)n1C [Example 97]
stdout: 9.80

stdin: Identify the reported pKi for the following entry. Cc1c(N(C(=O)c2cc(-c3cc4c(cc3C(=O)N3Cc5ccccc5C[C@H]3CN3CCOCC3)CN(C(=O)Cc3ccc(OCCC5CCOCC5)cc3F)CC4)n(C)c2C)c2ccc(O)cc2)cc(C#N)n1C [Example 54]
stdout: 9.28

stdin: Please report pKi for the following molecule: Cc1c(N(C(=O)c2cc(-c3cc4c(cc3C(=O)N3Cc5ccccc5C[C@H]3C)CN(C(=O)Cc3ccc(OCCN5CCN(CC(F)F)CC5)cc3)CC4)n(C)c2C)c2ccc(O)cc2)cc(C#N)n1C [Example 47]
stdout: 9.34

stdin: // fetch pKi given entry Cc1c(N(C(=O)c2cc(-c3cc4c(cc3C(=O)N3Cc5ccccc5C[C@H]3CN3CCCCC3)CN(C(=O)Cc3ccc(OCCN5CCOC(C)C5)cc3F)CC4)n(C)c2C)c2ccc(O)cc2)cc(C#N)n1C (single isomer, unassigned) [Example 109]
stdout: 9.60

stdin: Return the recorded pKi value; entry: Cc1c(N(C(=O)c2cc(-c3cc4c(cc3C(=O)N3Cc5ccccc5C[C@H]3C)CN(C(=O)Cc3ccc(OCCN5CCOCC5)cc3Cl)CC4)n(C)c2C)c2ccc(O)cc2)cc(C#N)n1C [Example 46]
stdout: 9.46

stdin: Hello, please tell me recorded pKi for this one: Cc1c(N(C(=O)c2cc(-c3cc4c(cc3C(=O)N3Cc5ccccc5C[C@H]3CN3CCC5(CC3)CC5)CN(C(=O)Cc3ccc(OCCN5CCOCC5)cc3F)CC4)n(C)c2C)c2ccc(O)cc2)cc(C#N)n1C [Example 126]
stdout: 9.31

stdin: In one line, give reported pKi of the entry Cc1cc(OCCN2CCOCC2)ccc1CC(=O)N1CCc2cc(-c3cc(C(=O)N(c4ccc(O)cc4)c4cc(C#N)n(C)c4C)c(C)n3C)c(C(=O)N3Cc4ccccc4C[C@H]3CN3CCCCC3)cc2C1 [Example 113] .
stdout: 9.57

stdin: Look up and report measured pKi for this entry: Cc1c(N(C(=O)c2cc(-c3cc4c(cc3C(=O)N3Cc5ccccc5C[C@H]3C)CN(C(=O)Cc3ccc(N5CCC(N6CCOCC6)C5)cc3)CC4)n(C)c2C)c2ccc(O)cc2)cc(C#N)n1C (single isomer, unassigned) [Example 63]
stdout: 8.55

stdin: Identify measured pKi associated with Cc1c(N(C(=O)c2cc(-c3cc4c(cc3C(=O)N3Cc5ccccc5C[C@H]3C)CN(C(=O)Cc3ccc(OCCN(C)C5CC5)cc3)CC4)n3c2CCCC3)c2ccc(O)cc2)cc(C#N)n1C [Example 35]
stdout: 9.11

stdin: Please report the measured pKi for Cc1c(N(C(=O)c2cc(-c3cc4c(cc3C(=O)N3Cc5ccccc5C[C@H]3C)CN(C(=O)Cc3ccc(OCCN5CCN(C6CC6)CC5)cc3)CC4)n(C)c2C)c2ccc(O)cc2)cc(C#N)n1C [Example 31]
stdout: 9.28
